Here the recorded pest or weed control at 125 g/ha is given for each entry.
Test system: velvetleaf (Abutilon theophrasti)
protocolNotes: Test C postemergence
Assay type: in vivo
reportedConditions: Abutilon theophrasti, post-emergence; Postemergence, 125 g ai/ha, scale 0 to 100; read-out: Plant response rating, Velvetleaf
Supply the numeric figure in %, leaving out any unit text.

molecule	measValue
Fc1cccc(Oc2ncc(Cl)cn2)c1Oc1ncc(Cl)cn1 [Compound 21]	70
N#Cc1cccc(Oc2ncc(C(F)(F)F)cn2)c1Oc1ncc(Cl)cn1 [Compound 39]	60
Fc1cnc(Oc2c(Cl)cccc2Oc2ncc(Cl)cn2)nc1 [Compound 18]	70

Exercise: Returns the measured pest or weed control at 125 g/ha for the input molecule. Input: N#Cc1cccc(Oc2ncc(Cl)cn2)c1Oc1ccc(Cl)cc1 [Compound 36]
Key: 80

Exercise: Returns the measured pest or weed control at 125 g/ha for the input molecule. Input: Fc1cnc(Oc2c(F)ccc(F)c2Oc2ncc(F)cn2)nc1 [Compound 29]
Key: 80

Exercise: Returns the measured pest or weed control at 125 g/ha for the input molecule. Input: N#Cc1cccc(Oc2ncc(Cl)cn2)c1Oc1ncc(Cl)cn1 [Compound 3]
Key: 70

Exercise: Returns the measured pest or weed control at 125 g/ha for the input molecule. Input: Fc1ccc(F)c(Oc2ncc(Cl)cn2)c1Oc1ncc(Cl)cn1 [Compound 34]
Key: 65

Exercise: Returns the measured pest or weed control at 125 g/ha for the input molecule. Input: N#Cc1cccc(Oc2ncc(Cl)cn2)c1Oc1ccc(Cl)cn1 [Compound 16]
Key: 70

Exercise: Returns the measured pest or weed control at 125 g/ha for the input molecule. Input: Fc1cccc(Oc2ncc(Cl)cn2)c1Oc1ccc(Cl)nc1 [Compound 20]
Key: 35

* * *

System: large (Lg) crabgrass (Digitaria sanguinalis)
protocolNotes: Test C preemergence
Assay type: in vivo
reportedConditions: Digitaria sanguinalis, pre-emergence, 336 h; 125 g ai/ha, preemergence; scale 0 to 100; read-out: Plant response rating, Crabgrass, Large
Here the recorded pest or weed control at 125 g/ha is given for each entry.
Supply the numeric figure in %, leaving out any unit text.

Example cases with answers are listed next.
molecule	pest or weed control at 125 g/ha [%]
Fc1ccc(F)c(Oc2ncc(Cl)cn2)c1Oc1ncc(Cl)cn1 [Compound 34]	100
Fc1cnc(Oc2c(F)ccc(F)c2Oc2ncc(F)cn2)nc1 [Compound 29]	98
N#Cc1cccc(Oc2ncc(Cl)cn2)c1Oc1ccc(Br)cn1 [Compound 15]	100
N#Cc1cccc(Oc2ncc(Cl)cn2)c1Oc1ncc(Br)cn1 [Compound 4]	100

Exercise: Returns the measured pest or weed control at 125 g/ha for the input molecule. Input: Fc1cnc(Oc2c(Cl)cccc2Oc2ncc(Cl)cn2)nc1 [Compound 18]
Key: 100

Exercise: Returns the measured pest or weed control at 125 g/ha for the input molecule. Input: N#Cc1cccc(Oc2ncc(Cl)cn2)c1Oc1cnc(Cl)cn1 [Compound 32]
Key: 100

* * *

Test system: blackgrass (Alopecurus myosuroides)
protocolNotes: Test A postemergence
Format: in vivo
reportedConditions: 31 g ai/ha, 0 to 100 scale
Source text: […]
parameterMeasured: Plant response rating, Blackgrass

Example cases with answers are listed next.
compound	experimentalSystem	Plant response rating, Blackgrass
Fc1ccc(Oc2ccc(C(F)(F)F)cn2)c(Oc2ncc(Cl)cn2)c1 [Compound 45]	blackgrass (Alopecurus myosuroides)	0
Fc1ccc(F)c(Oc2ncc(C(F)(F)F)cn2)c1Oc1ncc(Cl)cn1 [Compound 25]	blackgrass (Alopecurus myosuroides)	60
N#Cc1cccc(Oc2ncc(Cl)cn2)c1Oc1ccc(OC(F)(F)F)cc1 [Compound 33]	blackgrass (Alopecurus myosuroides)	0

Proceed to the following item.
Exercise: Returns the measured Plant response rating, Blackgrass for the input compound. Input: N#Cc1cccc(Oc2ncc(Cl)cn2)c1Oc1ccc(C(F)(F)F)cn1 [Compound 14]
Key: 0

* * *

Here the recorded pest or weed control at 31 g/ha is given for each entry.
System: velvetleaf (Abutilon theophrasti)
protocolNotes: Test C preemergence
Format: in vivo
reportedConditions: Abutilon theophrasti, pre-emergence; 31 g ai/ha, preemergence; scale 0 to 100; read-out: Plant response rating, Velvetleaf
Supply the numeric figure in %, leaving out any unit text.

Example cases with answers are listed next.
molecule	unit	measValue
Fc1cccc(Oc2ncc(C(F)(F)F)cn2)c1Oc1ncc(Cl)cn1	%	100
Fc1ccc(F)c(Oc2ncc(Cl)cn2)c1Oc1ncc(Cl)cn1	%	45
N#Cc1cccc(Oc2ncc(Cl)cn2)c1Oc1ccc(Br)cn1	%	75
FC(F)c1cccc(Oc2ncc(Cl)cn2)c1Oc1ncc(Cl)cn1	%	100
Fc1cnc(Oc2c(F)cccc2Oc2ncc(Cl)cn2)nc1	%	100

Exercise: Returns the measured pest or weed control at 31 g/ha for the input compound. Input: N#Cc1cccc(Oc2ncc(Cl)cn2)c1Oc1ncc(Cl)cn1
Key: 80

Exercise: Returns the measured pest or weed control at 31 g/ha for the input compound. Input: Fc1cccc(Oc2ncc(Cl)cn2)c1Oc1ncc(Br)cn1
Key: 60

Exercise: Returns the measured pest or weed control at 31 g/ha for the input compound. Input: Clc1cnc(Oc2cccc(Br)c2Oc2ncc(Cl)cn2)nc1
Key: 98

* * *

Here the recorded pest or weed control at 31 g/ha is given for each entry.
Tested on: giant foxtail (Setaria faberii)
protocolNotes: Test C preemergence
Format: in vivo
reportedConditions: Setaria faberi, pre-emergence, 336 h; 31 g ai/ha, preemergence; scale 0 to 100; read-out: Plant response rating, Foxtail, Giant
Source text: […]
Supply the numeric figure in %, leaving out any unit text.

Example cases with answers are listed next.
molecule	pest or weed control at 31 g/ha [%]
Fc1cnc(Oc2c(F)cccc2Oc2ncc(Cl)cn2)nc1	95
N#Cc1cccc(Oc2ncc(Cl)cn2)c1Oc1ncc(C(F)(F)F)cn1	95
N#Cc1cccc(Oc2ncc(Cl)cn2)c1Oc1ncc(Br)cn1	98

Proceed to the following item.
Exercise: Under giant foxtail (Setaria faberii): pest or weed control at 31 g/ha value of Fc1cccc(Oc2ncc(Cl)cn2)c1Oc1ncc(Br)cn1 ?
Key: 80

* * *

Test system: johnsongrass (Sorghum halepense)
protocolNotes: Test C postemergence
Type: in vivo
reportedConditions: Sorghum halepense, post-emergence, 336 h; Postemergence, 31 g ai/ha, scale 0 to 100; read-out: Plant response rating, Johnsongrass
parameterMeasured: pest or weed control at 31 g/ha (%)
Supply the numeric figure in %, leaving out any unit text.

compound	pest or weed control at 31 g/ha [%]
N#Cc1cccc(Oc2ncc(C(F)(F)F)cn2)c1Oc1ncc(Cl)cn1 [Compound 39]	15
Fc1ccc(F)c(Oc2ncc(Cl)cn2)c1Oc1ncc(Cl)cn1 [Compound 34]	5
N#Cc1cccc(Oc2ncc(Cl)cn2)c1Oc1ncc(C(F)(F)F)cn1 [Compound 38]	5
N#Cc1cccc(Oc2ncc(Cl)cn2)c1Oc1ccc(Cl)cn1 [Compound 16]	5

Exercise: Under johnsongrass (Sorghum halepense): pest or weed control at 31 g/ha value of N#Cc1cccc(Oc2ncc(Cl)cn2)c1Oc1ncc(Br)cn1 [Compound 4] ?
Key: 5

Exercise: Under johnsongrass (Sorghum halepense): pest or weed control at 31 g/ha value of Fc1cccc(Oc2ncc(Cl)cn2)c1Oc1ncc(Cl)cn1 [Compound 21] ?
Key: 5

* * *

Here the recorded pest or weed control at 31 g/ha is given for each entry.
System: morningglory (Ipomoea coccinea)
protocolNotes: Test C preemergence
Type: in vivo
reportedConditions: Ipomoea, pre-emergence, 336 h; 31 g ai/ha, preemergence; scale 0 to 100; read-out: Plant response rating, Morningglory
Supply the numeric figure in %, leaving out any unit text.

Exercise: Returns the measured pest or weed control at 31 g/ha for the input compound. Input: FC(F)c1cccc(Oc2ncc(Cl)cn2)c1Oc1ncc(Cl)cn1
Key: 90

Exercise: Returns the measured pest or weed control at 31 g/ha for the input compound. Input: Fc1cnc(Oc2c(F)cccc2Oc2ncc(Cl)cn2)nc1
Key: 45

Exercise: Returns the measured pest or weed control at 31 g/ha for the input compound. Input: N#Cc1cccc(Oc2ncc(Cl)cn2)c1Oc1ncc(Cl)cn1
Key: 45

Exercise: Returns the measured pest or weed control at 31 g/ha for the input compound. Input: N#Cc1cccc(Oc2ncc(Cl)cn2)c1Oc1ncc(C(F)(F)F)cn1
Key: 80

Exercise: Returns the measured pest or weed control at 31 g/ha for the input compound. Input: N#Cc1cccc(Oc2ncc(C(F)(F)F)cn2)c1Oc1ncc(Cl)cn1
Key: 80

* * *

System: wild radish (Raphanus raphanistrum)
protocolNotes: Test D postemergence
Type: in vivo
reportedConditions: 31 g ai/ha, scale 0 to 100
Here the recorded Plant response rating, Radish, Wild is given for each entry.
API doc: respond with a numeric literal and nothing else, no unit.

Exercise: Under wild radish (Raphanus raphanistrum): Plant response rating, Radish, Wild value of Fc1cnc(Oc2c(Br)cccc2Oc2ncc(Cl)cn2)nc1 ?
Key: 35

Exercise: Under wild radish (Raphanus raphanistrum): Plant response rating, Radish, Wild value of Fc1cccc(Oc2ncc(C(F)(F)F)cn2)c1Oc1ncc(Cl)cn1 ?
Key: 75

Exercise: Under wild radish (Raphanus raphanistrum): Plant response rating, Radish, Wild value of FC(F)(F)c1cnc(Oc2c(Br)cccc2Oc2ncc(Cl)cn2)nc1 ?
Key: 75

Exercise: Under wild radish (Raphanus raphanistrum): Plant response rating, Radish, Wild value of Fc1cnc(Oc2c(F)cccc2Oc2ncc(Cl)cn2)nc1 ?
Key: 80
